target: Orexin/Hypocretin receptor type 1 (Homo sapiens, UniProt O43613)
Sequence (O43613 whole entry): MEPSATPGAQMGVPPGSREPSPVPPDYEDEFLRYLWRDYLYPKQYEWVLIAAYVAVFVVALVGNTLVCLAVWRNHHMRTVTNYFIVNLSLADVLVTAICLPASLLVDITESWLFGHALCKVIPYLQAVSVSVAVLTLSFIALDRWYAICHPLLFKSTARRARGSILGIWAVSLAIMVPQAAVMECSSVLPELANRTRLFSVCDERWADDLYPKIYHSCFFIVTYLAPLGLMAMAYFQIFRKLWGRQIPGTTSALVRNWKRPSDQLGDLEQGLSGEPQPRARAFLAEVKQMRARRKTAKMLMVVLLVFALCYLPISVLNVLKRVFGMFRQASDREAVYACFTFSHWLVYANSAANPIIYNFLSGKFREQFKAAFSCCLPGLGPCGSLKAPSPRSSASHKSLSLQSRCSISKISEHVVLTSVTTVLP
methodSummary: Antagonist activity at OX1R (unknown origin) assessed as inhibition of orexin A-induced intracellular Ca2+ release by cell-based assay
Type: functional
protocolConditions: read-out: Ki
endpointName: Ki
Provide a numeric answer, followed by its unit.

>>> df
                                   molecule  reportedmeasurement
0  COc1ccc2c3c1O[C@@H]1C3[C@@H](CC[C@H]1N(C)C(=O)/C=C/c1ccoc1)[C@H](NCC1CC1)C2 (some centres undefined)               392 nM

Exercise: Look up Ki: COc1ccc2c3c1O[C@@H]1C3[C@]3(CC[C@H]1N(C)C(=O)/C=C/c1ccoc1)OC(=O)N(CC1CC1)[C@@H]3C2 (some centres undefined)
Solution: 538 nM

Exercise: Same question, COc1ccc2c3c1O[C@@H]1C3[C@]3(CC[C@H]1N(C)C(=O)/C=C/c1ccoc1)OS(=O)(=O)N(CC1CC1)[C@@H]3C2 (some centres undefined) this time
Solution: 1200 nM

Exercise: Same question, COc1ccc2c3c1O[C@@H]1C3[C@@H](CC[C@H]1N(C)C(=O)/C=C/c1ccoc1)[C@H](N(C)S(=O)(=O)c1ccccc1)C2 (some centres undefined) this time
Solution: 829 nM

Exercise: Same question, COc1ccc2c3c1O[C@@H]1C3[C@@H](CC[C@H]1N(C)C(=O)/C=C/c1ccoc1)[C@H](N(CC1CC1)C(=O)OC(C)(C)C)C2 (some centres undefined) this time
Solution: 14.8 nM

Exercise: Same question, COc1ccc2c3c1O[C@@H]1C3[C@@](O)(CC[C@H]1N(C)C(=O)/C=C/c1ccoc1)[C@H](N(CC1CC1)C(=O)c1ccccc1)C2 (some centres undefined) this time
Solution: 275 nM

Exercise: Same question, COc1ccc2c3c1O[C@@H]1C3[C@@H](CC[C@H]1N(C)C(=O)/C=C/c1ccoc1)[C@H](N(C)CC1CC1)C2 (some centres undefined) this time
Solution: 50.1 nM

Exercise: Same question, COc1ccc2c3c1O[C@@H]1C3[C@@](O)(CC[C@H]1N(C)C(=O)/C=C/c1ccoc1)[C@H](N(CC1CC1)C(=O)C1CC1)C2 (some centres undefined) this time
Solution: 1090 nM

Exercise: Same question, COc1ccc2c3c1O[C@@H]1C3[C@@](O)(CC[C@H]1N(C)C(=O)/C=C/c1ccoc1)[C@H](N(CC1CC1)C(=O)OC(C)(C)C)C2 (some centres undefined) this time
Solution: 72.8 nM
